- System: green foxtail
- ASSAY COMMENT: Test C postemergence
- Format: in vivo, Setaria viridis
- CONDITION CONTEXT: Postemergence, 125 g ai/ha; 0 to 100 scale (0 no effect, 100 complete control), 10 days
Plant response rating, Foxtail, Green listing for selected molecules.
Reply with just the number.

Please review the following examples before continuing.
MOLECULE: Cc1ccc(-n2cnc(C(C)(C)C#N)n2)cc1C(=O)N1C[C@H](C)Oc2c(Cl)cccc21
PARAMETER MEASURED: Plant response rating, Foxtail, Green
ENDPOINT VALUE: 90
--
MOLECULE: COC(C)(C)c1ncn(-c2ccc(C)c(C(=O)N3C[C@H](C)Oc4c(Cl)cccc43)c2)n1
PARAMETER MEASURED: Plant response rating, Foxtail, Green
ENDPOINT VALUE: 50
--
MOLECULE: CC(C)Oc1ncn(-c2cccc(C(=O)N3C[C@H](C)Oc4c(Cl)cccc43)c2)n1
PARAMETER MEASURED: Plant response rating, Foxtail, Green
ENDPOINT VALUE: 0
--
MOLECULE: Cc1ccc(-n2cnc(C(C)C)n2)cc1C(=O)N1CC(C(F)(F)F)Oc2c(Cl)cccc21 (stereo not drawn)
PARAMETER MEASURED: Plant response rating, Foxtail, Green
ENDPOINT VALUE: 40
--
MOLECULE: Cc1ncc(-c2cccc(C(=O)N3C[C@H](C)Oc4c(Cl)cccc43)c2)o1
PARAMETER MEASURED: Plant response rating, Foxtail, Green
ENDPOINT VALUE: 20

Entry CCOC[C@H]1CN(C(=O)c2cc(-n3cnc(C(C)C)n3)cc3c2OCCO3)c2cccc(Cl)c2O1 , Plant response rating, Foxtail, Green reported as 60

# molecule CCOC[C@H]1CN(C(=O)c2cc(-n3cnc(C4CCC4)n3)cc3c2OCO3)c2cccc(Cl)c2O1 ; its Plant response rating, Foxtail, Green = 10

// sample COC[C@H]1CN(C(=O)c2cc(-n3cnc(C(C)C)n3)ccc2OC)c2cccc(Cl)c2O1 , its Plant response rating, Foxtail, Green was 60

Sure, the documented Plant response rating, Foxtail, Green for COCc1ncn(-c2ccc(C)c(C(=O)N3C[C@H](C)Oc4c(Cl)cccc43)c2)n1 is 30

The reported value for COC[C@H]1CN(C(=O)c2cc(-n3cnc(C(C)C)n3)cc3c2OCCO3)c2cccc(Cl)c2O1 in terms of Plant response rating, Foxtail, Green is 70

GET /value?item= Cc1cccc2c1O[C@@H](C)CN2C(=O)c1cc(-n2cnc(C(C)C)n2)cc2c1CCO2 &field=Plant response rating, Foxtail, Green returns 60

Query Cc1ncn(-c2ccc(C)c(C(=O)N3CC(C(F)(F)F)Oc4c(Cl)cccc43)c2)n1 (stereo not drawn) yields Plant response rating, Foxtail, Green of 70

Entry under test: CCOc1ncn(-c2cccc(C(=O)N3C[C@H](C)Oc4c(Cl)cccc43)c2)n1 . Its Plant response rating, Foxtail, Green was 30

Entry COC(C)c1ncn(-c2ccc(C)c(C(=O)N3CC(C)Oc4c(Cl)cccc43)c2)n1 (mixture of isomers) , Plant response rating, Foxtail, Green reported as 50

For record COc1ncn(-c2cccc(C(=O)N3C[C@H](C)Oc4c(Cl)cccc43)c2)n1 the listed Plant response rating, Foxtail, Green is 50

* * *

Attribute: Corn plant response rating (crop injury, 0 = no effect, 100 = complete kill) at 125 g/ha
- Test system: corn
- ASSAY COMMENT: Test A preemergence
- Format: in vivo, Zea mays
- CONDITION CONTEXT: Zea mays, pre-emergence, 240 h, 125 g ai/ha, visual injury after 10 days, 0 to 100 scale, 0 is no effect, 100 is complete control
Return type: number; implicit unit %.

Example cases with answers are listed next.
COMPOUND SMILES: CCc1ncn(-c2ccc(OC)c(C(=O)N3C[C@H](C)Oc4c(Cl)cccc43)c2)n1
UNIT TAG: %
ENDPOINT VALUE: 40
--
COMPOUND SMILES: Cc1cccc2c1O[C@@H](C)CN2C(=O)c1cccc(-n2cnc(C3COC3)n2)c1
UNIT TAG: %
ENDPOINT VALUE: 40
--
COMPOUND SMILES: Cc1ccc(-n2cnc(C(C)(C)C)n2)cc1C(=O)N1C[C@H](C)Oc2c(Cl)cccc21
UNIT TAG: %
ENDPOINT VALUE: 40

Now, please, on to the next molecule.
Log: corn, molecule C#Cc1ncn(-c2cccc(C(=O)N3C[C@H](C)Oc4c(C)cccc43)c2)n1 , Corn plant response rating (crop injury, 0 = no effect, 100 = complete kill) at 125 g/ha = 20

* * *

- Tested on: soybean
- ASSAY COMMENT: Test C postemergence
- Format: in vivo, Glycine max
- CONDITION CONTEXT: Postemergence, 500 g ai/ha, 10 days, visual 0 to 100 scale (0 no effect, 100 complete control)
PARAMETER MEASURED: Plant response rating, Soybean
Reply with the value as a number alone.

Below: 5 compounds and their reported Plant response rating, Soybean.
COMPOUND: COc1cc(-n2cnc(C(C)C)n2)cc(C(=O)N2C[C@H](C)Oc3c(Cl)cccc32)c1OC [Compound 194]
Plant response rating, Soybean: 90

COMPOUND: Cc1cccc2c1OC(C)CN2C(=O)c1cccc(-n2ncnc2C2CC2)c1 (racemic) [Compound 196]
Plant response rating, Soybean: 0

COMPOUND: C[C@H]1CN(C(=O)c2cccc(-n3cnc(C(C)(C)O)n3)c2)c2cccc(Cl)c2O1 [Compound 169]
Plant response rating, Soybean: 100

COMPOUND: COc1cc(C(=O)N2C[C@H](C)Oc3c(Cl)cccc32)cc(-n2cnc(C(C)C)n2)c1 [Compound 212]
Plant response rating, Soybean: 100

COMPOUND: CC(C)c1ncn(-c2cc3c(c(C(=O)N4C[C@H](C)Oc5c(Cl)cccc54)c2)OCCO3)n1 [Compound 217]
Plant response rating, Soybean: 100

Per the record, CCn1cnc(-c2cccc(C(=O)N3C[C@H](C)Oc4c(C)cccc43)c2)n1 [Compound 165] has Plant response rating, Soybean of 30

Briefly, Plant response rating, Soybean measured for CCc1ncn(-c2ccc(C)c(C(=O)N3CC(C(F)(F)F)Oc4c(Cl)cccc43)c2)n1 (single isomer, unassigned) [Compound 218] : 100

Entry COc1ccc(-n2cncn2)cc1C(=O)N1C[C@H](C)Oc2c(Cl)cccc21 [Compound 241] , Plant response rating, Soybean reported as 100

Looking up C[C@H]1CN(C(=O)c2cc(-n3cnc(C4CC4)n3)cc3c2OCCO3)c2cccc(Cl)c2O1 [Compound 156] , I see its Plant response rating, Soybean listed as 100

* * *

- System: ragweed
- ASSAY COMMENT: Test A preemergence
- Type: in vivo, Ambrosia artemisiifolia
- CONDITION CONTEXT: Ambrosia artemisiifolia, pre-emergence, 240 h, 500 g ai/ha, visual injury after 10 days, 0 to 100 scale, 0 is no effect, 100 is complete control, read-out: Plant response rating, Ragweed
PARAMETER MEASURED: pest or weed control at 500 g/ha (%)
Respond with the bare value in %.

MOLECULE: CC(C)c1ncn(-c2cc(C(=O)N3C[C@H](C)Oc4c(Cl)cccc43)c3ccccc3c2)n1 [Compound 145]
UNIT TAG: %
ENDPOINT VALUE: 0
//
MOLECULE: Cc1cccc2c1O[C@@H](C)CN2C(=O)c1cccc(-n2cnn(C)c2=O)c1 [Compound 117]
UNIT TAG: %
ENDPOINT VALUE: 40
//
MOLECULE: C[C@H]1CN(C(=O)c2cccc(-c3cnn(C)n3)c2)c2cccc(Cl)c2O1 [Compound 127]
UNIT TAG: %
ENDPOINT VALUE: 0

The molecule Cc1ccc(-n2ncnc2C)cc1C(=O)N1C[C@H](C)Oc2c(Cl)cccc21 (single isomer, unassigned) [Compound 126] , when measured on ragweed, yielded pest or weed control at 500 g/ha of 0

* * *

- Tested on: galium
- ASSAY COMMENT: Test A postemergence
- Assay type: in vivo, Galium aparine
- CONDITION CONTEXT: 500 g ai/ha, Postemergence; 0 to 100 scale
PARAMETER MEASURED: Plant response rating, Galium
Write the value as a bare number.

These recorded examples may help you get a feel for the data.
COMPOUND: CC1CN(C(=O)c2cc(F)cc(-n3cncn3)c2)c2cccc(Cl)c2O1 (centres unmarked)
SYSTEM NAME: galium
Plant response rating, Galium: 100

COMPOUND: Cc1cccc2c1O[C@@H](C)CN2C(=O)c1cc(-n2cncn2)ccc1Cl
SYSTEM NAME: galium
Plant response rating, Galium: 100

COMPOUND: CC1CN(C(=O)c2cccc(-n3cncn3)c2)c2c(F)cccc2O1 (centres unmarked)
SYSTEM NAME: galium
Plant response rating, Galium: 50

So for C[C@H]1CN(C(=O)c2cccc(-n3cncn3)c2)c2cccc(C(F)(F)F)c2O1 , the logged Plant response rating, Galium turned out to be 90

According to the records, this compound Cc1ncn(-c2cccc(C(=O)N3C[C@H](C)Oc4c(C)cccc43)c2)n1 displays Plant response rating, Galium of 100
